experimental-target: T1, huNav157chim14-β1-β2-β3 (human)
T1 construct: Whole entry; HEK Flp-In cells; also called huNav157 chimera 14-beta1-beta2-beta3
assay-explanation: binding FACS, HEK Flp-In
property-name: MFI

# binder, reported-value
records = [
    ("F0103PMP495F09 (bispecific antibody, crude periplasmic extract; also called F103275B05(N93R)-50GS-F0103495F09 bivalent ISVD) EVQLVESGGGLVQPGGSLRLSCAASGSIFNINSMAWYRRAPGKQRELVASSTNGGSTNYADSVKGRFTISRDNAKRVYLQMNSLTPEDTAVYYCRALLQPSIYDISRTYWGQGTLVTVSSGGGGSGGGGSGGGGSGGGGSGGGGSGGGGSGGGGSGGGGSGGGGSGGGGSEVQLVESGGGLVQAGSSLSLSCAASGRALSTYAMGWFRQAPGKEREFVARISRSGITTYYTDSVKGRFTISRDRAKDTVYLQMNSLKPEDTAIYLCAADASTNPAGYYLRNRYDYWGQGTLVTVSSAAADYKDHDGDYKDHDIDYKDDDDKGAAHHHHHHKAAGGGGG", "128000 MFI"),
    ("F0103PMP500E03 (bispecific antibody, crude periplasmic extract; also called F103275B05(N93R)-50GS-F0103500E03 bivalent ISVD) EVQLVESGGGLVQPGGSLRLSCAASGSIFNINSMAWYRRAPGKQRELVASSTNGGSTNYADSVKGRFTISRDNAKRVYLQMNSLTPEDTAVYYCRALLQPSIYDISRTYWGQGTLVTVSSGGGGSGGGGSGGGGSGGGGSGGGGSGGGGSGGGGSGGGGSGGGGSGGGGSEVQLVESGGGLVQAGGSLRLSCAASGRTFSRYQMGWFRQAPGKEREFVAYISWSGSTRYVDSVKGRFTISRDNAKNTVYLQMNSLKPEDTAVYHCAAGTAGIISSRPETYDSWGQGTQVTVSSAAADYKDHDGDYKDHDIDYKDDDDKGAAHHHHHHKAA", "87200 MFI"),
    ("F0103PMP478E09 (bispecific antibody, Screened as crude periplasmic extract; also called F103275B05(N93R)-50GS-F0103478E09 bivalent ISVD) EVQLVESGGGLVQPGGSLRLSCAASGSIFNINSMAWYRRAPGKQRELVASSTNGGSTNYADSVKGRFTISRDNAKRVYLQMNSLTPEDTAVYYCRALLQPSIYDISRTYWGQGTLVTVSSGGGGSGGGGSGGGGSGGGGSGGGGSGGGGSGGGGSGGGGSGGGGSGGGGSEVQLVESGGGLVQAGGSLRLSCAASGRAFSTLAMGWFRQAPGKEREFVAAISRNGNNSATGDSLKGRFTISRDSTKSTVFLQMNTLKPEDTAVYYCAAISTPSASHPYVRKESYRYWGQGTQVTVSSAAADYKDHDGDYKDHDIDYKDDDDKGAAHHHHHHKAAGGGGG", "1230 MFI"),
    ("F0103PMP492E09 (bispecific antibody, crude periplasmic extract; also called F103275B05(N93R)-50GS-F0103492E09 bivalent ISVD) EVQLVESGGGLVQPGGSLRLSCAASGSIFNINSMAWYRRAPGKQRELVASSTNGGSTNYADSVKGRFTISRDNAKRVYLQMNSLTPEDTAVYYCRALLQPSIYDISRTYWGQGTLVTVSSGGGGSGGGGSGGGGSGGGGSGGGGSGGGGSGGGGSGGGGSGGGGSGGGGSEVQLVESGGGLVQAGGSLRLSCAASKSILSFAYMRWYRQAPGKQREFVASIAIGGATSYTDSVKGRFTISRDNAKNTVYLQMNSLKPEDTAVYYCSAPAGQYRGQGTLVTVSSAAADYKDHDGDYKDHDIDYKDDDDKGAAHHHHHHKAAGGGGG", "133000 MFI"),
]

These entries and their values trace back to patent US20240002497A1.
